# condition-parameters: in n-butanol, 298.15 K
endpoint: solubility (mole fraction)
// print number alone

For this compound ( CC1CCC(=O)C1=O (stereo unspecified) ), measured solubility (mole fraction) is 0.0858

---

# condition-parameters: in isopropanol, 283.15 K
endpoint: solubility (mole fraction)
// print number alone

For this compound ( CC1CCC(=O)C1=O (stereo unspecified) ), measured solubility (mole fraction) is 0.0388

---

# condition-parameters: in acetone, 313.15 K
endpoint: solubility (mole fraction)

For this molecule ( CC1CCC(=O)C1=O (stereo unspecified) ), measured solubility (mole fraction) is 0.298

---

# condition-parameters: in ethyl acetate, 293.15 K
endpoint: solubility (mole fraction)
// print number alone

For this compound ( CC1CCC(=O)C1=O (stereo unspecified) ), measured solubility (mole fraction) is 0.094
